# Experimental Details: reduction of polyQ htt aggregates in cells – imaging, exon1htt(103Q)mCFP cells, high-content imaging, primary screen (AID 483);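 note: compound exposure lasted 3 days before fixation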
# Assay Conditions: exon1htt(103Q)mCFP cell line, aggregate imaging, at 2 µM; stronger effect = higher value
Endpoint Label: inhibition of aggregation (%)
Give just the number in %; leave the unit off.

(Q) Give its inhibition of aggregation value. Item: CC1(C)CC(CCNC(=O)c2ccco2)CC(C)(C)N1
(A) 1.2

(Q) Give its inhibition of aggregation value. Item: CCOC(=O)CSc1ncnc2c1cnn2-c1ccc(C)cc1
(A) -24.2

(Q) Give its inhibition of aggregation value. Item: COc1ccc(OC)c(S(=O)(=O)N2CCC(C(=O)NCC3CCCO3)CC2)c1 (centres undefined)
(A) 10.7

(Q) Give its inhibition of aggregation value. Item: N#Cc1c(/N=C/c2cccs2)sc2c1CCCCC2
(A) -34.1

(Q) Give its inhibition of aggregation value. Item: CC(O)CN1C(=O)C(CC(=O)Nc2ccc(Cl)cc2)SC1=Nc1ccccc1 (centres undefined)
(A) -11.8

(Q) Give its inhibition of aggregation value. Item: CCOC(=O)C1=C(C)NC(C)=C(C(=O)OCC)C1c1cc(N)ccc1OC(F)F
(A) 22.6

(Q) Give its inhibition of aggregation value. Item: O=C(C(c1ccccc1)c1ccccc1)N1CCN(Cc2ccccn2)CC1
(A) 3.4

(Q) Give its inhibition of aggregation value. Item: N#CC1=C(N)SC(N)=C(C#N)C1c1ccc(C(F)(F)F)cc1
(A) -11.9

(Q) Give its inhibition of aggregation value. Item: Cc1ccc(NC(=O)C2CCCN2S(=O)(=O)c2cccc3cccnc23)cc1F (centres undefined)
(A) 3.5

====

Kindly supply the reported nuclei count values for the records listed here.
# Experimental Details: reduction of polyQ htt aggregates in cells – imaging, exon1htt(103Q)mCFP cells, high-content imaging, primary screen (AID 483);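 note: compound exposure lasted 3 days before fixation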;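 for nuclei count: percent of the per-plate median nuclei count of sample wells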
# Assay Conditions: exon1htt(103Q)mCFP cell line, aggregate imaging, at 2 µM; measured here: cell count, toxicity
Give just the number in %; leave the unit off.

(Q) Give its nuclei count value. Item: O=C(O)C1CCCN1S(=O)(=O)c1ccc2ccccc2c1 (centres undefined)
(A) 89.5

(Q) Give its nuclei count value. Item: COc1ccc(N(C)C(=O)CCS(=O)(=O)c2cccc3nonc23)c(OC)c1
(A) 121

(Q) Give its nuclei count value. Item: COc1ccc(C(c2nnnn2C2CCCC2)N2CCN(C3CCCC3)CC2)cc1OC (centres undefined)
(A) 104

(Q) Give its nuclei count value. Item: Cc1ccc(Cn2nnc(C(=O)Nc3cccc(C)c3C)c2N)cc1
(A) 95.1

(Q) Give its nuclei count value. Item: CCc1c(C)n([O-])c2c([n+]1=O)CCC2
(A) 106

(Q) Give its nuclei count value. Item: Cc1nn(C)c(C)c1NC(=O)CSc1nc(Cc2ccccc2)nc2c1cnn2-c1ccccc1
(A) 105

(Q) Give its nuclei count value. Item: CCOC(=O)CC(=O)Nc1c(C)cc(C)cc1C
(A) 87.4

(Q) Give its nuclei count value. Item: N#Cc1ccc(COC(=O)Cn2nnc(-c3ccccc3)n2)cc1
(A) 98.8

(Q) Give its nuclei count value. Item: COc1ccc(C(=O)Nc2ccc(S(=O)(=O)Nc3onc(C)c3C)cc2)cc1
(A) 110

(Q) Give its nuclei count value. Item: CCCCC(=O)Nc1ccc(NC(=O)C2CC2)nc1
(A) 67.6

(Q) Give its nuclei count value. Item: CCCCN(C)C(=O)c1ccc(CS(=O)(=O)c2ccccc2C)o1
(A) 65.2

(Q) Give its nuclei count value. Item: CC1CN(C(=O)c2cc3cc(Cl)cc(Cl)c3oc2=O)CC(C)O1 (centres undefined)
(A) 104

(Q) Give its nuclei count value. Item: COc1ccccc1Cn1c(-c2ccco2)nc2nc3ccccc3nc21
(A) 109

(Q) Give its nuclei count value. Item: CC(=O)N1CCN=C1SCc1c(F)cccc1Cl
(A) 110

(Q) Give its nuclei count value. Item: Clc1cccc(Nc2c3c(nc4ncnn24)CCC3)c1
(A) 36

(Q) Give its nuclei count value. Item: COc1ccccc1CNC(=O)C1CCC(CNc2c(N3CCOCC3)c(=O)c2=O)CC1 (centres undefined)
(A) 105

(Q) Give its nuclei count value. Item: Cn1c(CCNC(=O)c2ccco2)nc2cc(NC(=O)C3CCCCC3)ccc21
(A) 91.1

(Q) Give its nuclei count value. Item: Cc1cc(C)c(C#N)c(SCc2ccc(C#N)cc2)n1
(A) 52

(Q) Give its nuclei count value. Item: COC(=O)Cn1c(=O)c2c(nc(Br)n2CC(=O)OC)n(C)c1=O
(A) 103

(Q) Give its nuclei count value. Item: CC1=CCC2C(=O)N(c3nc(C)cc(C)n3)C(=O)C2C1 (centres undefined)
(A) 85.6

(Q) Give its nuclei count value. Item: c1ccc(CCn2nnnc2CN2CCN(C3CCCC3)CC2)cc1
(A) 112

(Q) Give its nuclei count value. Item: O=C(NCc1ccc2c(c1)OCO2)C1CCCN(S(=O)(=O)c2cccnc2)C1 (centres undefined)
(A) 96.3

(Q) Give its nuclei count value. Item: Cc1nc(SCCC(=O)O)c2ccccc2n1
(A) 112

(Q) Give its nuclei count value. Item: CCCCn1c(NCCC)nc2c1c(=O)[nH]c(=O)n2C
(A) 114

====

# Test System: Voltage-gated potassium channel subunit beta-2 (Rattus norvegicus)
# Experimental Details: inhibitors of rat Kvbeta2 reductase activity – biochemical, NADPH fluorescence, primary screen (AID 622);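 note: slope of raw intensity against log time taken from 70 to 1610 s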
# Assay Conditions: recombinant KvBeta, 4-cyanobenzaldehyde reduction, at 10 µM, stronger effect = higher value
Classification field: enter TRUE for fluorescence slope values not below -0.5, FALSE for values below it.

(Q) Item CCOc1ccc(C(C)=O)cc1COc1ccc(-n2cnnn2)cc1 with fluorescence slope of -0.5 or above?
(A) FALSE

(Q) Item Cc1cc(C)n(CC(=O)O)n1 with fluorescence slope of -0.5 or above?
(A) TRUE

(Q) Item Cc1cccc(C2CC(c3ccccc3)Nc3nc(N)nn32)c1 (centres undefined) with fluorescence slope of -0.5 or above?
(A) FALSE

(Q) Item COC(=O)c1ccccc1NC(=O)c1ccc(-c2ccccc2F)o1 with fluorescence slope of -0.5 or above?
(A) TRUE

(Q) Item COCCn1c(SCC(=O)N(C(C)C)C(C)C)nnc1-c1cc2ccccc2cc1O with fluorescence slope of -0.5 or above?
(A) TRUE

(Q) Item CCOC(=O)c1cnc(SC2CC(=O)N(c3ccc(OC)c(OC)c3)C2=O)nc1N (centres undefined) with fluorescence slope of -0.5 or above?
(A) FALSE

(Q) Item CCOc1ccc(Cc2nn[nH]n2)cc1 with fluorescence slope of -0.5 or above?
(A) TRUE

(Q) Item O=C(COC(=O)C1CC2C=CC1C2)Nc1ccc2c(c1)OC(F)(F)O2 (centres undefined) with fluorescence slope of -0.5 or above?
(A) TRUE

(Q) Item Cc1cc(Cl)cc2c1NC(=O)[C@]21[C@@H]2C(=O)N(Cc3ccccc3)C(=O)[C@@H]2[C@@H]2CCCN21 with fluorescence slope of -0.5 or above?
(A) FALSE

(Q) Item Cc1ccnc(NC(=O)CCC(=O)N(CC(=O)NC(C)(C)C)C2CCCC2)c1 with fluorescence slope of -0.5 or above?
(A) FALSE

(Q) Item CCOC(=O)C1CCCN(C(=O)c2ccc(CS(=O)(=O)c3ccc(Br)cc3)o2)C1 (centres undefined) with fluorescence slope of -0.5 or above?
(A) TRUE

(Q) Item Cc1ccc(-c2cc(C(=O)Nc3cc(C)on3)c3ccccc3n2)c(C)c1 with fluorescence slope of -0.5 or above?
(A) FALSE

(Q) Item CCOc1ccc(-c2nc(C#N)c(N3CCN(C)CC3)o2)cc1 with fluorescence slope of -0.5 or above?
(A) TRUE

====

# Test System: Voltage-gated potassium channel subunit beta-2 (Rattus norvegicus)
# Experimental Details: inhibitors of rat Kvbeta2 reductase activity – biochemical, NADPH fluorescence, primary screen (AID 622);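 note: slope of raw intensity against log time taken from 70 to 1610 s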
# Assay Conditions: recombinant KvBeta, 4-cyanobenzaldehyde reduction, at 10 µM, stronger effect = higher value
Class key for fluorescence slope values: bottom range (below -0.5), center range (-0.5 to below -0.4), top range (-0.4 or more)

(Q) For this compound, which bin applies? O=C(Nc1nnc(COc2ccc(F)cc2)s1)c1cccs1
(A) bottom range

(Q) For this compound, which bin applies? CCOc1ccc(CNC(=O)C2CCCN(S(C)(=O)=O)C2)cc1OC (stereo unspecified)
(A) top range

(Q) For this compound, which bin applies? CCOc1cc(C2CC(=O)N3CN(C4CCCCC4)CSC3=C2C#N)ccc1O (stereo unspecified)
(A) bottom range

(Q) For this compound, which bin applies? COc1ccc(CCNc2nc(N3CCOCC3)nc(N3CCOCC3)n2)cc1OC
(A) bottom range

(Q) For this compound, which bin applies? Cc1nnc2c3ccccc3c(-c3ccccc3)nn12
(A) top range

(Q) For this compound, which bin applies? COc1ccc(C(=O)N2CCN(C3CCC(c4ccccc4)CC3)CC2)cc1OC (stereo unspecified)
(A) center range

(Q) For this compound, which bin applies? Cc1ccc(C(C(=O)NC2CCCCC2)N2CCOCC2)cc1 (stereo unspecified)
(A) center range

(Q) For this compound, which bin applies? Cc1cccc(Cc2c(C)nc3nc(SCC(=O)NCc4ccco4)nn3c2C)c1
(A) center range

(Q) For this compound, which bin applies? O=C(NCCCN1CCOCC1)c1cc(-c2ccc(O)cc2)on1
(A) bottom range

(Q) For this compound, which bin applies? Cc1ccc(S(=O)(=O)Nc2nc3ccccc3nc2NCc2ccco2)cc1
(A) top range

(Q) For this compound, which bin applies? CCC(C)(C(=O)NC1CCCCC1)N(CC1CCCO1)C(=O)c1ccccn1 (stereo unspecified)
(A) center range

(Q) For this compound, which bin applies? CC(C)OCCCNC(=O)c1cc2c(s1)CS(=O)(=O)C2
(A) top range

(Q) For this compound, which bin applies? CCOCCCNC(=O)Cn1ncc2c(=O)oc3ccccc3c21
(A) bottom range

(Q) For this compound, which bin applies? O=S(=O)(c1ccccc1)N(Cc1nc(-c2ccccc2)no1)C1CCCCC1
(A) center range

Every entry's value here was drawn from PubChem BioAssay.
